- Test system: male Fischer 344 rats
- method_summary: Liver weight 24 h after a single i.p. dose
- Format: in vivo
- details: dose 0.2 (head mg/kg; text mmol/kg), i.p. in corn oil, mean ± SE, N = 3–4
Marks after values point to notes of the source that are not given here.
result_type: Liver weight

// recorded Liver weight for O=C(O)CSC(=O)Nc1cc(Cl)cc(Cl)c1 : 3.58 ± 0.21^b g/100% BW

// field: Liver weight; key: O=C1CSC(=O)N1c1cc(C(F)(F)F)cc(C(F)(F)F)c1 ; value = 3.82 ± 0.12^f g/100% BW

Quick note, Liver weight for O=C1SCCN1c1cc(Cl)cc(Cl)c1 landed at 3.96 ± 0.10^d g/100% BW

Reported Liver weight for O=C1CSCN1c1cc(Cl)cc(Cl)c1 was 3.74 ± 0.23^c g/100% BW

The value of Liver weight measured for the molecule CC1SC(=O)N(c2cc(Cl)cc(Cl)c2)C1=O (centres unmarked) turned out to be 3.67 ± 0.31^a g/100% BW

For this molecule ( O=C1CSC(=O)N1c1ccccc1 ), measured Liver weight is 3.69 ± 0.25^e g/100% BW

For this molecule ( O=C1CSC(=O)N1c1ccc(Cl)cc1 ), measured Liver weight is 3.62 ± 0.16^c g/100% BW

The molecule Cc1cc(C)cc(N2C(=O)CSC2=O)c1 showed Liver weight equal to 3.47 ± 0.20^a g/100% BW

* * *

- Tested on: male Fischer 344 rats
- method_summary: Liver weight 24 h after a single i.p. dose
- Type: in vivo
- details: dose 0.4 (head mg/kg; text mmol/kg), i.p. in corn oil, mean ± SE, N = 3–4
Marks after values point to notes of the source that are not given here.
result_type: Liver weight

Given item O=C1CSC(=O)N1c1cc(C(F)(F)F)cc(C(F)(F)F)c1 [DFMPT] , the value recorded as its Liver weight is 3.59 ± 0.10^f g/100% BW

get_value(item= O=C1CSC(=O)N1c1ccccc1 [PTZD, 3-phenyl-2,4-thiazolidinedione] , readout=Liver weight) returns 3.68 ± 0.18^e g/100% BW

Briefly, Liver weight measured for O=C1CSCN1c1cc(Cl)cc(Cl)c1 [4-DCTD, 3-(3,5-dichlorophenyl)-4-thiazolidinone] : 3.96 ± 0.18^c g/100% BW

* * *

Hi there, I'd appreciate the recorded Kidney weight for every entry that follows.
- Test system: male Fischer 344 rats
- method_summary: Kidney weight 24 h after a single i.p. dose
- Assay type: in vivo
- details: dose 0.2 (head mg/kg; text mmol/kg), i.p. in corn oil, mean ± SE, N = 3–4
Marks after values point to notes of the source that are not given here.

I looked up O=C1CSC(=O)N1c1ccc(Cl)cc1 and its Kidney weight for male Fischer 344 rats was 0.39 ± 0.02^b g/ 100% BW

For O=C1SCCN1c1cc(Cl)cc(Cl)c1 on male Fischer 344 rats, measured Kidney weight was 0.39 ± 0.01^e g/ 100% BW

Field Kidney weight (system: male Fischer 344 rats) for entry O=C1CSC(=O)N1c1cc(C(F)(F)F)cc(C(F)(F)F)c1 = 0.40 ± 0.01^g g/ 100% BW

Bench note, male Fischer 344 rats: entry O=C1CSCN1c1cc(Cl)cc(Cl)c1 , its Kidney weight = 0.40 ± 0.01^d g/ 100% BW

I looked up CC1SC(=O)N(c2cc(Cl)cc(Cl)c2)C1=O (centres unmarked) and its Kidney weight for male Fischer 344 rats was 0.37 ± 0.01^a g/ 100% BW

The measured Kidney weight that Cc1cc(C)cc(N2C(=O)CSC2=O)c1 showed for male Fischer 344 rats is 0.38 ± 0.01^a g/ 100% BW

Log: male Fischer 344 rats, compound O=C1CSC(=O)N1c1ccccc1 , Kidney weight = 0.36 ± 0.01^d g/ 100% BW

Measured Kidney weight for this entry O=C(O)CSC(=O)Nc1cc(Cl)cc(Cl)c1 on male Fischer 344 rats: 0.40 ± 0.01^b g/ 100% BW

* * *

What Liver weight was measured for each of the following?
- Test system: male Fischer 344 rats
- method_summary: Liver weight 24 h after a single i.p. dose
- Type: in vivo
- details: dose 1.0 (head mg/kg; text mmol/kg), i.p. in corn oil, mean ± SE, N = 3–4
Marks after values point to notes of the source that are not given here.

For this compound ( O=C1CSC(=O)N1c1cc(C(F)(F)F)cc(C(F)(F)F)c1 ), measured Liver weight is 4.05 ± 0.15*,^f g/100% BW

Liver weight in this record for O=C1SCCN1c1cc(Cl)cc(Cl)c1 : 3.85 ± 0.15^d g/100% BW

Item: O=C1CSC(=O)N1c1ccccc1 | Liver weight: 4.24 ± 0.06*,^e g/100% BW

Liver weight reported for this compound CC1SC(=O)N(c2cc(Cl)cc(Cl)c2)C1=O (stereo not shown) : 4.10 ± 0.07^a g/100% BW

The recorded Liver weight for O=C1CSC(=O)N1c1ccc(Cl)cc1 is 3.98 ± 0.14*,^c g/100% BW

Measured Liver weight, O=C1CSCN1c1cc(Cl)cc(Cl)c1 : 3.81 ± 0.15^c g/100% BW

Recorded Liver weight (compound Cc1cc(C)cc(N2C(=O)CSC2=O)c1 ): 3.97 ± 0.04*,^b g/100% BW

* * *

- Test system: male Fischer 344 rats
- method_summary: Blood urea nitrogen
- Assay type: in vivo
- details: dose 0.2 (head mg/kg; text mmol/kg), i.p. in corn oil, 24 h, mean ± SE, N = 3–4
Marks after values point to notes of the source that are not given here.
result_type: Blood urea nitrogen

What the record says about O=C1CSC(=O)N1c1ccccc1 : Blood urea nitrogen is 24.8 ± 1.9^d mg/dl

Recorded Blood urea nitrogen (molecule Cc1cc(C)cc(N2C(=O)CSC2=O)c1 ): 18.1 ± 1.3^a mg/dl

Per the record, O=C1CSC(=O)N1c1ccc(Cl)cc1 has Blood urea nitrogen of 37.9 ± 0.6*,^c mg/dl

// Blood urea nitrogen value for O=C(O)CSC(=O)Nc1cc(Cl)cc(Cl)c1 : 21.0 ± 1.0^b mg/dl

Blood urea nitrogen recorded for this molecule, CC1SC(=O)N(c2cc(Cl)cc(Cl)c2)C1=O (centres unmarked) , is 19.6 ± 0.8^a mg/dl

Entry O=C1CSCN1c1cc(Cl)cc(Cl)c1 , Blood urea nitrogen reported as 26.8 ± 1.5^d mg/dl

The measured Blood urea nitrogen associated with O=C1CSC(=O)N1c1cc(C(F)(F)F)cc(C(F)(F)F)c1 reads 19.6 ± 0.5^e mg/dl

Field Blood urea nitrogen (entry O=C1SCCN1c1cc(Cl)cc(Cl)c1 ) reads 23.0 ± 1.2^g mg/dl

* * *

- System: male Fischer 344 rats
- method_summary: Blood urea nitrogen
- Assay type: in vivo
- details: dose 0.4 (head mg/kg; text mmol/kg), i.p. in corn oil, 24 h, mean ± SE, N = 3–4
Marks after values point to notes of the source that are not given here.
Assign Blood urea nitrogen to each entry below.

Quick note, Blood urea nitrogen for O=C(O)CSC(=O)Nc1cc(Cl)cc(Cl)c1 [DCTA] landed at 62.2 ± 11.2*,^c mg/dl

// sample Cc1cc(C)cc(N2C(=O)CSC2=O)c1 [DMPT] , its Blood urea nitrogen was 22.2 ± 0.4^a mg/dl

In plain terms, CC1SC(=O)N(c2cc(Cl)cc(Cl)c2)C1=O (centres unmarked) [DPMT] has a documented Blood urea nitrogen of 24.6 ± 1.3^a mg/dl

Sure, the documented Blood urea nitrogen for O=C1CSC(=O)N1c1cc(C(F)(F)F)cc(C(F)(F)F)c1 [DFMPT] is 21.7 ± 0.4^e mg/dl

Recorded result, O=C1SCCN1c1cc(Cl)cc(Cl)c1 [2-DCTD, 3-(3,5-dichlorophenyl)-2-thiazolidinone] , Blood urea nitrogen: 22.3 ± 1.1^g mg/dl

GET /value?item= O=C1CSC(=O)N1c1ccccc1 [PTZD, 3-phenyl-2,4-thiazolidinedione] &field=Blood urea nitrogen returns 24.1 ± 0.9^d mg/dl

For reference, reported Blood urea nitrogen for O=C1CSCN1c1cc(Cl)cc(Cl)c1 [4-DCTD, 3-(3,5-dichlorophenyl)-4-thiazolidinone] stands at 25.6 ± 1.9^d mg/dl

The reported Blood urea nitrogen of the compound O=C1CSC(=O)N1c1ccc(Cl)cc1 [CPTD, 3-(4-chlorophenyl)-2,4-thiazolidinedione] was 38.1 ± 1.7*,^c mg/dl

* * *

- System: male Fischer 344 rats
- method_summary: Six-hour urine protein content after a single i.p. dose
- Type: in vivo
- details: dose 1.0 (head mg/kg; text mmol/kg), i.p. in corn oil, mean ± SE, N = 3–4
Marks after values point to notes of the source that are not given here.
result_type: Six-hour urine protein content

Field Six-hour urine protein content (entry O=C1CSCN1c1cc(Cl)cc(Cl)c1 ) reads 2.8 ± 0.3^c mg

For reference, reported Six-hour urine protein content for CC1SC(=O)N(c2cc(Cl)cc(Cl)c2)C1=O (stereo not shown) stands at 2.5 ± 0.3^a mg

Quick note, Six-hour urine protein content for Cc1cc(C)cc(N2C(=O)CSC2=O)c1 landed at 2.8 ± 0.4*,^b mg

Just so you know, measured Six-hour urine protein content for O=C1SCCN1c1cc(Cl)cc(Cl)c1 came out at 2.0 ± 0.1^d mg

Six-hour urine protein content for O=C1CSC(=O)N1c1ccccc1 is 2.3 ± 0.6^d mg

For record O=C1CSC(=O)N1c1ccc(Cl)cc1 the listed Six-hour urine protein content is 1.9 ± 0.1^c mg

Recorded Six-hour urine protein content (compound O=C1CSC(=O)N1c1cc(C(F)(F)F)cc(C(F)(F)F)c1 ): 1.0 ± 0.2^e mg
